Target: T1, mouse latent myostatin (mouse, UniProt O08689 26-267; O08689 268-376)
T1 sequence 1: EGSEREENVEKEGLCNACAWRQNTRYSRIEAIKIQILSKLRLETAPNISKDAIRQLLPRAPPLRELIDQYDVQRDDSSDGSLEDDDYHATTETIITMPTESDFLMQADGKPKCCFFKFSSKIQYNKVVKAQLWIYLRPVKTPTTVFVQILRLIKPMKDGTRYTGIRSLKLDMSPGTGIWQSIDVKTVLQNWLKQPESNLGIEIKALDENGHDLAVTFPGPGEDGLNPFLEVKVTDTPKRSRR
T1 sequence 2: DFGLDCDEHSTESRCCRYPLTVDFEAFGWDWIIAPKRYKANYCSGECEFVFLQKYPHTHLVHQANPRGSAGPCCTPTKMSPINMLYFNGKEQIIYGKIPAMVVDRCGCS
Test: SPR 37C pH5.8; pH 5.8
endpointLabel: pKd
Give bare numbers, as −log10 of the molar value.

query: Need pKd of MS_M103245H1233-SG1/M103202L1045-SK1 (antibody, human IgG1, kappa, V domains shown, also called MS1032LO23-SG1) VH: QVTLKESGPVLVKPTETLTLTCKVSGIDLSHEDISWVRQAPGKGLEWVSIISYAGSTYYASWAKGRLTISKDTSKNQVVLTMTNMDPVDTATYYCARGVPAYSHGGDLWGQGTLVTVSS VL: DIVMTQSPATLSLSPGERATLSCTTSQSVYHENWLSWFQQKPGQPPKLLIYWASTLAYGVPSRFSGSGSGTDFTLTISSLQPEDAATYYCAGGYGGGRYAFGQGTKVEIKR , thanks.
result: 8.19
